The measurements presented in this section are drawn from patent US5861476A.

- TARGET_OR_TEST_SYSTEM: IL-1RtI (Homo sapiens)
- Construct: made in house; host or cells: recombinant host cells (one form soluble from baculovirus transformed host cells; another PIG-tailed and cleaved from the cell surface)
- Sequence (P14778 18-336): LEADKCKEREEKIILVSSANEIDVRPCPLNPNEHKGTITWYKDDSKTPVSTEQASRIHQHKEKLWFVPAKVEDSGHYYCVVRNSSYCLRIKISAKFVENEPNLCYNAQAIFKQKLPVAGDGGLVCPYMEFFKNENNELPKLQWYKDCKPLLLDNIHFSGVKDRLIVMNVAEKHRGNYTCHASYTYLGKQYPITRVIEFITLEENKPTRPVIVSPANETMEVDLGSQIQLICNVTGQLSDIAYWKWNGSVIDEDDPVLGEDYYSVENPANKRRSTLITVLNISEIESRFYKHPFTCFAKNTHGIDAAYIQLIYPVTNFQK
- MEASUREMENT_PROTOCOL: Inhibition of 125I-IL-1α binding to IL-1RtI (Example 3)
- CONDITION_DESCRIPTION: inhibition of 125I-IL-1α binding to IL-1RtI; soluble peptide unless marked *
Where no end group is shown, it is not given here.
ENDPOINT: IC50

# annotated cases, reported IC50 shown
SEQUENCE_INPUT: VHVYWQPYSVQT [Peptide 3H5, VHVYWQPYSVQT]
TARGET_OR_TEST_SYSTEM: IL-1RtI (Homo sapiens)
ENDPOINT: IC50
RESULT: ≤ 100 µM

SEQUENCE_INPUT: MWYQPYSSQPAE [MWYQPYSSQPAE]
TARGET_OR_TEST_SYSTEM: IL-1RtI (Homo sapiens)
ENDPOINT: IC50
RESULT: ≤ 100 µM

SEQUENCE_INPUT: EGWWVQPYALPL [EGWWVQ PYALPL]
TARGET_OR_TEST_SYSTEM: IL-1RtI (Homo sapiens)
ENDPOINT: IC50
RESULT: ≤ 100 µM

SEQUENCE_INPUT: ESFWVQPYALPL [ESFWVQ PYALPL]
TARGET_OR_TEST_SYSTEM: IL-1RtI (Homo sapiens)
ENDPOINT: IC50
RESULT: > 100 µM

Need IC50, item WGNWWQPYSVHR [WGNWWQPYSVHR]
> 100 µM

Further, for TIIWEQPYALPL [TIIWEQ PYALPL] ?
≤ 100 µM

* * *

- TARGET_OR_TEST_SYSTEM: IL-1RtI (Homo sapiens, UniProt P14778)
- Construct: made in house; host or cells: recombinant host cells (one form soluble from baculovirus transformed host cells; another PIG-tailed and cleaved from the cell surface)
- MEASUREMENT_PROTOCOL: Inhibition of 125I-IL-1α binding to IL-1RtI (Example 3)
- CONDITION_DESCRIPTION: inhibition of 125I-IL-1α binding to IL-1RtI; soluble peptide unless marked *
Where no end group is shown, it is not given here.
ENDPOINT: IC50

# annotated cases, reported IC50 shown
SEQUENCE_INPUT: ARFWLQPYALPL [ARFWLQ PYALPL]
TARGET_OR_TEST_SYSTEM: IL-1RtI (Homo sapiens, UniProt P14778)
RESULT: ≤ 100 µM

SEQUENCE_INPUT: AHLFWQPYSVQR [AHLFWQPYSVQR]
TARGET_OR_TEST_SYSTEM: IL-1RtI (Homo sapiens, UniProt P14778)
RESULT: ≤ 100 µM

SEQUENCE_INPUT: EWYQPYALGWAR [EWYQPYALGWAR]
TARGET_OR_TEST_SYSTEM: IL-1RtI (Homo sapiens, UniProt P14778)
RESULT: ≤ 100 µM

SEQUENCE_INPUT: YYTWQQPYALPL [YYTWQQ PYALPL]
TARGET_OR_TEST_SYSTEM: IL-1RtI (Homo sapiens, UniProt P14778)
RESULT: > 100 µM

SEQUENCE_INPUT: SVGEDHNFWTSEYWQPYALPL [SVGEDHNFWTSE YWQPYALPL]
TARGET_OR_TEST_SYSTEM: IL-1RtI (Homo sapiens, UniProt P14778)
RESULT: ≤ 0.5 µM

SEQUENCE_INPUT: DGYDRWRQSGERYWQPYALPL
TARGET_OR_TEST_SYSTEM: IL-1RtI (Homo sapiens, UniProt P14778)
RESULT: ≤ 0.5 µM

SEQUENCE_INPUT: VYWQPYSVQ [VYWQPYSVQ]
TARGET_OR_TEST_SYSTEM: IL-1RtI (Homo sapiens, UniProt P14778)
RESULT: ≤ 100 µM

SEQUENCE_INPUT: YYSWQPYALPL [YYSWQ PYALPL]
TARGET_OR_TEST_SYSTEM: IL-1RtI (Homo sapiens, UniProt P14778)
RESULT: > 100 µM

SEQUENCE_INPUT: WWQPYALPL [WWQPYALPL]
TARGET_OR_TEST_SYSTEM: IL-1RtI (Homo sapiens, UniProt P14778)
RESULT: ≤ 100 µM

SEQUENCE_INPUT: SWHSVYWQPYSVQSVPE [SWHS VYWQPYSVQ SVPE]
TARGET_OR_TEST_SYSTEM: IL-1RtI (Homo sapiens, UniProt P14778)
RESULT: ≤ 100 µM

Item: GWYQPYALGF [GWYQPYALGF] Test system: IL-1RtI (Homo sapiens, UniProt P14778) Read-out: IC50 Value: ?
≤ 100 µM

Further, for RGDYWQPYSVQS [3H9, 11, RGDYWQPYSVQS] ?
≤ 100 µM

Further, for SHLYWQPYSVQ [Peptide 2H2, SHLYWQPYSVQ] ?
≤ 100 µM
